# procedure-text: Cmax in patient with end-stage renal failure undergoing hemodialysis at 4 mg/kg, iv after 2 hrs by LC/MS/MS analysis
# Format: ADME, organism-based
# Parameters: dose 4 mg/kg, route intravenous
# condition-info: human, in vivo

# structure-smiles-string, units-label, Cmax
rows = [
    ("C[C@@H](c1ncncc1F)[C@](O)(Cn1cncn1)c1ccc(F)cc1F", "ng/mL", 1700),
]

###

# procedure-text: Terminal half life in human with normal renal function
# Assay type: ADME, organism-based
# condition-info: in vivo, read-out: beta t1/2 (converted)
value-type: half-life (h)

# compound, obs-value
measured = [
    ("C[C@@H](c1ncncc1F)[C@](O)(Cn1cncn1)c1ccc(F)cc1F [VORICONAZOLE]", 7),
]

###

# procedure-text: Cmax in patient with end-stage renal failure undergoing hemodiafiltration at 4 mg/kg, iv after 2 hrs by LC/MS/MS analysis
# Type: ADME, organism-based
# Design: dose 4 mg/kg, route intravenous
# condition-info: human, in vivo

# structure-smiles-string, Cmax (ng/mL)
measured = [
    ("C[C@@H](c1ncncc1F)[C@](O)(Cn1cncn1)c1ccc(F)cc1F", 1900),
]

###

# procedure-text: Cmax in patient with end-stage renal failure undergoing genius system-mediated dialysis at 4 mg/kg, iv after 2 hrs by LC/MS/MS analysis
# Assay type: ADME, organism-based
# Design: dose 4 mg/kg, route intravenous
# condition-info: human, in vivo

# structure-smiles-string, Cmax [ng/mL]
measured = [
    ("C[C@@H](c1ncncc1F)[C@](O)(Cn1cncn1)c1ccc(F)cc1F", 1800),
]
